Listing of recorded TGI by entry.
- Tested on: A549 NSCLC
- assay-protocol: NCI tumour cell line growth inhibition, 48 h

C#Cc1cccc(N2C(=O)CC(=P(c3ccccc3)(c3ccccc3)c3ccccc3)C2=O)c1 ... > 100 µM
CCC1N2CCCCC2[C@@H]2c3[nH]c4ccccc4c3CCN12 (stereo partly drawn) ... > 100 µM
O=C(Nc1ccccc1)N1CC(CN2CCN(c3ccccc3)CC2)OC1=O (stereo not drawn) ... > 100 µM
COc1cc(C)c(N(C)C(=O)CN(C)C)cc1Nc1nc(Nc2cccc(F)c2C(N)=O)c2cc[nH]c2n1 ... > 25 µM
CC(=O)[CH-]C(=O)c1ccccc1.CC(=O)[CH-]C(=O)c1ccccc1.CC(C)CCCC(C)[C@H]1CCC2[C@@H]3CCC4C[C@@H]([O-])CC[C@]4(C)C3CC[C@@]21C.CC(C)CCCC(C)[C@H]1CCC2[C@@H]3CCC4C[C@@H]([O-])CC[C@]4(C)C3CC[C@@]21C.Cl.[Ti+4] (stereo partly drawn) ... > 25 µM

Moving on to another molecule below.
State its TGI for this molecule: CCCC/C=C1\CCC(CN2CCOCC2)C1=O (stereo not drawn)
46.2 µM
